Listed next: entries and their corresponding viability, T/C.
Test system: KRAS-mutant PDC complex spheroid viability;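 also: viability read after seven days of compound exposure; 100% = DMSO vehicle-treated spheroids so lower means less viable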
Experiment: Anticancer human tumor 186277-243-T-J2-PDC patient-derived colon adenocarcinoma cell line growth inhibition [KRAS2]
Conditions: second compound 3.16 µM; first compound 0.01 µM; active compounds read low
I only need the number, in %, no unit after it.

// solved cases for viability, T/C follow
- compound: "CC(=O)OC12COC1CC(O)C1(C)C(=O)C(O)C3=C(C)C(OC(=O)C(O)C(NC(=O)OC(C)(C)C)c4ccccc4)CC(O)(C(OC(=O)c4ccccc4)C21)C3(C)C (stereo not given) + C=CC(=O)N1CCN(c2nc(OCC3CCCN3C)nc3c2CCN(c2cccc4cccc(C)c24)C3)CC1CC#N"
  recorded metric: "viability, T/C"
  units of measure: "%"
  experimental result: 4.54
- compound: "CC(=O)OC12COC1CC(O)C1(C)C(=O)C(O)C3=C(C)C(OC(=O)C(O)C(NC(=O)OC(C)(C)C)c4ccccc4)CC(O)(C(OC(=O)c4ccccc4)C21)C3(C)C (stereo not given) + CC1OCC2(CCN(c3cnc(Sc4ccnc(N)c4Cl)c(N)n3)CC2)C1N"
  recorded metric: "viability, T/C"
  units of measure: "%"
  experimental result: 2.53
- compound: "CC(C)n1nc(-c2ccc3oc(N)nc3c2)c2c(N)ncnc21 + C=CC(=O)N1CCN(c2nc(=O)n(-c3c(C)ccnc3C(C)C)c3nc(-c4c(O)cccc4F)c(F)cc23)C(C)C1"
  recorded metric: "viability, T/C"
  units of measure: "%"
  experimental result: 31.1
- compound: "CC1COCCN1c1cc(-c2ccnn2C)c2ccnc(-c3ccn[nH]3)c2n1 (stereo not given) + C=CC(=O)N1CCN(c2nc(=O)n(-c3c(C)ccnc3C(C)C)c3nc(-c4c(O)cccc4F)c(F)cc23)C(C)C1"
  recorded metric: "viability, T/C"
  units of measure: "%"
  experimental result: 79.5
- compound: "CN(C)C/C=C/C(=O)Nc1cc2c(Nc3ccc(F)c(Cl)c3)ncnc2cc1O[C@H]1CCOC1 + C=CC(=O)N1CCN(c2nc(OCC3CCCN3C)nc3c2CCN(c2cccc4cccc(C)c24)C3)CC1CC#N"
  recorded metric: "viability, T/C"
  units of measure: "%"
  experimental result: 0.31
- compound: "CC1COCCN1c1cc(-c2ccnn2C)c2ccnc(-c3ccn[nH]3)c2n1 (stereo not given) + CNCc1ccccc1-c1csc(C(C)Nc2nc(C)nc3cc(OC)c(OC)cc23)c1"
  recorded metric: "viability, T/C"
  units of measure: "%"
  experimental result: 23.7
- compound: "CC(=O)OC12COC1CC(O)C1(C)C(=O)C(O)C3=C(C)C(OC(=O)C(O)C(NC(=O)OC(C)(C)C)c4ccccc4)CC(O)(C(OC(=O)c4ccccc4)C21)C3(C)C (stereo not given) + CNCc1ccccc1-c1csc(C(C)Nc2nc(C)nc3cc(OC)c(OC)cc23)c1"
  recorded metric: "viability, T/C"
  units of measure: "%"
  experimental result: 6.31
- compound: "CC(=O)Nc1cccc(-n2c(=O)n(C3CC3)c(=O)c3c(Nc4ccc(I)cc4F)n(C)c(=O)c(C)c32)c1 + C=CC(=O)N1CCN(c2nc(OCC3CCCN3C)nc3c2CCN(c2cccc4cccc(C)c24)C3)CC1CC#N"
  recorded metric: "viability, T/C"
  units of measure: "%"
  experimental result: 0.11
- compound: "CN(C)C/C=C/C(=O)Nc1cc2c(Nc3ccc(F)c(Cl)c3)ncnc2cc1O[C@H]1CCOC1 + COc1cc2nc(C)nc(NC(C)c3cc(N)cc(C(F)(F)F)c3)c2cc1OC1CCOC1"
  recorded metric: "viability, T/C"
  units of measure: "%"
  experimental result: 100
- compound: "Cn1ncnc1[C@H]1c2n[nH]c(=O)c3cc(F)cc(c23)N[C@@H]1c1ccc(F)cc1 + C=CC(=O)N1CCN(c2nc(OCC3CCCN3C)nc3c2CCN(c2cccc4cccc(C)c24)C3)CC1CC#N"
  recorded metric: "viability, T/C"
  units of measure: "%"
  experimental result: 0.18

[Q] Recall and state the measured viability, T/C for CC(=O)OC12COC1CC(O)C1(C)C(=O)C(O)C3=C(C)C(OC(=O)C(O)C(NC(=O)OC(C)(C)C)c4ccccc4)CC(O)(C(OC(=O)c4ccccc4)C21)C3(C)C (stereo not given) + C=CC(=O)N1CCN(c2nc(=O)n(-c3c(C)ccnc3C(C)C)c3nc(-c4c(O)cccc4F)c(F)cc23)C(C)C1 .
[A] 6.24

[Q] Recall and state the measured viability, T/C for CC(C)n1nc(-c2ccc3oc(N)nc3c2)c2c(N)ncnc21 + CNCc1ccccc1-c1csc(C(C)Nc2nc(C)nc3cc(OC)c(OC)cc23)c1 .
[A] 16.8

[Q] Recall and state the measured viability, T/C for Cn1ncnc1[C@H]1c2n[nH]c(=O)c3cc(F)cc(c23)N[C@@H]1c1ccc(F)cc1 + CNCc1ccccc1-c1csc(C(C)Nc2nc(C)nc3cc(OC)c(OC)cc23)c1 .
[A] 12.7

[Q] Recall and state the measured viability, T/C for CC1COCCN1c1cc(-c2ccnn2C)c2ccnc(-c3ccn[nH]3)c2n1 (stereo not given) + CC1OCC2(CCN(c3cnc(Sc4ccnc(N)c4Cl)c(N)n3)CC2)C1N .
[A] 111

[Q] Recall and state the measured viability, T/C for CC1COCCN1c1cc(-c2ccnn2C)c2ccnc(-c3ccn[nH]3)c2n1 (stereo not given) + COc1cc2nc(C)nc(NC(C)c3cc(N)cc(C(F)(F)F)c3)c2cc1OC1CCOC1 .
[A] 99.5

[Q] Recall and state the measured viability, T/C for CC(C)n1nc(-c2ccc3oc(N)nc3c2)c2c(N)ncnc21 + C=CC(=O)N1CCN(c2nc(OCC3CCCN3C)nc3c2CCN(c2cccc4cccc(C)c24)C3)CC1CC#N .
[A] 0.14

[Q] Recall and state the measured viability, T/C for CCN1CCN(Cc2ccc(Nc3ncc(F)c(-c4cc(F)c5nc(C)n(C(C)C)c5c4)n3)nc2)CC1 + CNCc1ccccc1-c1csc(C(C)Nc2nc(C)nc3cc(OC)c(OC)cc23)c1 .
[A] 85.4

[Q] Recall and state the measured viability, T/C for CCN1CCN(Cc2ccc(Nc3ncc(F)c(-c4cc(F)c5nc(C)n(C(C)C)c5c4)n3)nc2)CC1 + COc1cc2nc(C)nc(NC(C)c3cc(N)cc(C(F)(F)F)c3)c2cc1OC1CCOC1 .
[A] 98.1

[Q] Recall and state the measured viability, T/C for CC(=O)OC12COC1CC(O)C1(C)C(=O)C(O)C3=C(C)C(OC(=O)C(O)C(NC(=O)OC(C)(C)C)c4ccccc4)CC(O)(C(OC(=O)c4ccccc4)C21)C3(C)C (stereo not given) + COc1cc2nc(C)nc(NC(C)c3cc(N)cc(C(F)(F)F)c3)c2cc1OC1CCOC1 .
[A] 3.01

[Q] Recall and state the measured viability, T/C for CCN1CCN(Cc2ccc(Nc3ncc(F)c(-c4cc(F)c5nc(C)n(C(C)C)c5c4)n3)nc2)CC1 + CC1OCC2(CCN(c3cnc(Sc4ccnc(N)c4Cl)c(N)n3)CC2)C1N .
[A] 130
